Target: E. coli DNA gyrase (Escherichia coli, UniProt P0AES4+P0AES6)
Construct: purchased TopoGEN TG2001G
Sequence (P0AES4 whole entry, one chain of several): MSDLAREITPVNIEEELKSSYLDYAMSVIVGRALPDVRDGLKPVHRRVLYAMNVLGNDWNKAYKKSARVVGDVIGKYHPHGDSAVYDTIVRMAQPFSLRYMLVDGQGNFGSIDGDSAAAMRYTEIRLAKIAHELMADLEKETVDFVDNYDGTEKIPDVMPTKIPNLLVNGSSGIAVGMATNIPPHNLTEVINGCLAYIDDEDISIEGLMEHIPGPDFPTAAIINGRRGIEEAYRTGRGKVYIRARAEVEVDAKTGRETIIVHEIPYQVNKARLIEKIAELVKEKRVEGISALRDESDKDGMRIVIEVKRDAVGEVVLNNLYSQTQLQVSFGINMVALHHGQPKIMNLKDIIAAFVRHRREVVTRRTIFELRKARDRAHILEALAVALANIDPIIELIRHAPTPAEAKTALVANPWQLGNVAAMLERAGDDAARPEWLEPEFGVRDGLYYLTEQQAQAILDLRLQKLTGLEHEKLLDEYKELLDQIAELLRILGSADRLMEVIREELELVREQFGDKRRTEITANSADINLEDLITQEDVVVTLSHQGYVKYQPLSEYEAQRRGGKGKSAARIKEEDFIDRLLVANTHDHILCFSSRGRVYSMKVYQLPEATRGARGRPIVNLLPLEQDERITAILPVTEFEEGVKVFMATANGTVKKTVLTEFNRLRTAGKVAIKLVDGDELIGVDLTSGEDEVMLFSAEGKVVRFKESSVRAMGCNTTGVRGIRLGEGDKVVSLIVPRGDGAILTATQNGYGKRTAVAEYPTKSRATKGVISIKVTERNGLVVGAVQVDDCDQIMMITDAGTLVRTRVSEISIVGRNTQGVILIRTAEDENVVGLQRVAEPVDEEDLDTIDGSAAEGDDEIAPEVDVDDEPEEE
Test: DNA gyrase supercoiling assay
Format: biochemical
Settings: relaxed plasmid, 37 °C for 30 min, agarose gel band densities; read-out: IC50, inhibition of the supercoiling activity of E. coli DNA gyrase
pIC50: −log10 of the molar value.
Each record here notes measured pIC50.
Observed Property: pIC50

compound="CO[C@@H](C(N)=O)[C@H](NC(=O)c1ccc(NC(=O)c2ccc([N+](=O)[O-])cc2)cc1)C(=O)Nc1ccc(C(=O)Nc2ccc(C(=O)Nc3ccc(C(=O)O)c(O)c3OC(C)C)c(O)c2OC(C)C)cc1 [Compound 12, coralmycin A, reference compound]" observed_property=pIC50 reading=7.10
compound=COc1cc(C(=O)O)ccc1NC(=O)c1ccc(NC(=O)c2ccc(NC(=O)[C@@H](NC(=O)c3ccc(NC(=O)c4ccc([N+](=O)[O-])cc4)cc3)[C@@H](OC)C(N)=O)cc2)c(OC(C)C)c1O observed_property=pIC50 reading=7.30

====

Test system: Streptococcus pneumonia KCTC 5412
Observed Property: MIC

molecule="CO[C@@H](C(N)=O)[C@H](NC(=O)c1ccc(N)cc1)C(=O)Nc1ccc(C(=O)Nc2ccc(C(=O)Nc3ccc(C(=O)O)cc3OC(C)C)c(O)c2OC(C)C)cc1 [Compound 3, Coralmycin E]" observed_property=MIC reading="> 32 µg/mL"
molecule="COc1cc(C(=O)O)ccc1NC(=O)c1ccc(NC(=O)c2ccc(N)cc2)c(OC(C)C)c1O [Compound 5, Coralmycin G]" observed_property=MIC reading="> 32 µg/mL"
molecule="CC(C)Oc1cc(C(=O)O)ccc1NC(=O)c1ccc(NC(=O)c2ccc(N)cc2)c(OC(C)C)c1O [Compound 10, cystobactamid 507]" observed_property=MIC reading="> 32 µg/mL"
molecule="CO[C@@H](C(N)=O)[C@H](NC(=O)c1ccc(NC(=O)c2ccc([N+](=O)[O-])cc2)cc1)C(=O)Nc1ccc(C(=O)Nc2ccc(C(=O)Nc3ccc(C(=O)O)cc3OC(C)C)c(O)c2OC(C)C)cc1 [Compound 11, cystobactamid 919-2, reference compound]" observed_property=MIC reading="1 µg/mL"
molecule="CCOc1cc(C(=O)O)ccc1NC(=O)c1ccc(NC(=O)c2ccc(NC(=O)[C@@H](NC(=O)c3ccc(NC(=O)c4ccc([N+](=O)[O-])cc4)cc3)[C@@H](OC)C(N)=O)cc2)c(OC(C)C)c1O [Compound 9, cystobactamid 905-2]" observed_property=MIC reading="1 µg/mL"
molecule="CCOc1c(NC(=O)c2ccc(N)cc2)ccc(C(=O)Nc2ccc(C(=O)O)cc2OC(C)C)c1O [Compound 6, Coralmycin H]" observed_property=MIC reading="> 32 µg/mL"
molecule="CCOc1cc(C(=O)O)ccc1NC(=O)c1ccc(NC(=O)c2ccc(N)cc2)c(OCC)c1O [Compound 4, Coralmycin F]" observed_property=MIC reading="> 32 µg/mL"

====

System: Enterococcus faecalis KCTC 5191
Observed Property: MIC (µg/mL)

compound="CO[C@H](C(=O)O)[C@H](NC(=O)c1ccc(NC(=O)c2ccc([N+](=O)[O-])cc2)cc1)C(=O)Nc1ccc(C(=O)Nc2ccc(C(=O)Nc3ccc(C(=O)O)cc3OC(C)C)c(O)c2OC(C)C)cc1 [Compound 13, coralmycin B, reference compound]" relation_symbol== reading=4
compound=CCOc1c(NC(=O)c2ccc(N)cc2)ccc(C(=O)Nc2ccc(C(=O)O)cc2OC(C)C)c1O relation_symbol=> reading=32
compound=CCOc1cc(C(=O)O)ccc1NC(=O)c1ccc(NC(=O)c2ccc(NC(=O)[C@@H](NC(=O)c3ccc(NC(=O)c4ccc([N+](=O)[O-])cc4)cc3)[C@@H](OC)C(N)=O)cc2)c(OC(C)C)c1O relation_symbol== reading=0.5
compound=CCOc1cc(C(=O)O)ccc1NC(=O)c1ccc(NC(=O)c2ccc(N)cc2)c(OC(C)C)c1O relation_symbol=> reading=32
compound="CO[C@@H](C(N)=O)[C@H](NC(=O)c1ccc(NC(=O)c2ccc([N+](=O)[O-])cc2)cc1)C(=O)Nc1ccc(C(=O)Nc2ccc(C(=O)Nc3ccc(C(=O)O)c(O)c3OC(C)C)c(O)c2OC(C)C)cc1 [Compound 12, coralmycin A, reference compound]" relation_symbol== reading=0.03
compound=COc1cc(C(=O)O)ccc1NC(=O)c1ccc(NC(=O)c2ccc(N)cc2)c(OC(C)C)c1O relation_symbol=> reading=32
compound=COc1cc(C(=O)O)ccc1NC(=O)c1ccc(NC(=O)c2ccc(NC(=O)[C@@H](NC(=O)c3ccc(NC(=O)c4ccc([N+](=O)[O-])cc4)cc3)[C@@H](OC)C(N)=O)cc2)c(OC(C)C)c1O relation_symbol== reading=1
compound=CO[C@@H](C(N)=O)[C@H](NC(=O)c1ccc(N)cc1)C(=O)Nc1ccc(C(=O)Nc2ccc(C(=O)Nc3ccc(C(=O)O)cc3OC(C)C)c(O)c2OC(C)C)cc1 relation_symbol=> reading=32
compound="O=C(O)c1cn(C2CC2)c2cc(N3CCNCC3)c(F)cc2c1=O [Cip, Ciprofloxacin, reference compound]" relation_symbol== reading=0.5
